# RECORDED_CONDITIONS: in acetone, 298.15 K
MEASURED_METRIC: solubility (mole fraction)

# input What measured solubility (mole fraction) goes with O=C(O)COc1ccc(Cl)cc1Cl ?
# output 0.15

* * *

# RECORDED_CONDITIONS: in MTBE, 293.15 K
MEASURED_METRIC: solubility (mole fraction)
// return a plain number; no unit text

# input What measured solubility (mole fraction) goes with O=C(O)COc1ccc(Cl)cc1Cl ?
# output 0.116

* * *

# RECORDED_CONDITIONS: in n-propanol, 278.15 K
MEASURED_METRIC: solubility (mole fraction)
// return a plain number; no unit text

# input What measured solubility (mole fraction) goes with O=C(O)COc1ccc(Cl)cc1Cl ?
# output 0.0486

* * *

# RECORDED_CONDITIONS: in n-butanol, 288.15 K
MEASURED_METRIC: solubility (mole fraction)
// return a plain number; no unit text

# input What measured solubility (mole fraction) goes with O=C(O)COc1ccc(Cl)cc1Cl ?
# output 0.079

* * *

# RECORDED_CONDITIONS: in n-pentanol, 298.15 K
MEASURED_METRIC: solubility (mole fraction)
// return a plain number; no unit text

# input What measured solubility (mole fraction) goes with O=C(O)COc1ccc(Cl)cc1Cl ?
# output 0.131

* * *

# RECORDED_CONDITIONS: in methyl acetate, 288.15 K
MEASURED_METRIC: solubility (mole fraction)

# input What measured solubility (mole fraction) goes with O=C(O)COc1ccc(Cl)cc1Cl ?
# output 0.0761

* * *

# RECORDED_CONDITIONS: in sec-butanol, 293.15 K
MEASURED_METRIC: solubility (mole fraction)
// return a plain number; no unit text

# input What measured solubility (mole fraction) goes with O=C(O)COc1ccc(Cl)cc1Cl ?
# output 0.0809

* * *

# RECORDED_CONDITIONS: in ethanol, 283.15 K
MEASURED_METRIC: solubility (mole fraction)
// return a plain number; no unit text

# input What measured solubility (mole fraction) goes with O=C(O)COc1ccc(Cl)cc1Cl ?
# output 0.0797

* * *

# RECORDED_CONDITIONS: in isobutanol, 313.15 K
MEASURED_METRIC: solubility (mole fraction)
// return a plain number; no unit text

# input What measured solubility (mole fraction) goes with O=C(O)COc1ccc(Cl)cc1Cl ?
# output 0.135

* * *

# RECORDED_CONDITIONS: in acetonitrile, 313.15 K
MEASURED_METRIC: solubility (mole fraction)

# input What measured solubility (mole fraction) goes with O=C(O)COc1ccc(Cl)cc1Cl ?
# output 0.078

* * *

# RECORDED_CONDITIONS: in ethyl acetate, 318.15 K
MEASURED_METRIC: solubility (mole fraction)

# input What measured solubility (mole fraction) goes with O=C(O)COc1ccc(Cl)cc1Cl ?
# output 0.14

* * *

# RECORDED_CONDITIONS: in n-butanol, 293.15 K
MEASURED_METRIC: solubility (mole fraction)

# input What measured solubility (mole fraction) goes with O=C(O)COc1ccc(Cl)cc1Cl ?
# output 0.0986

* * *

# RECORDED_CONDITIONS: in n-butanol, 283.15 K
MEASURED_METRIC: solubility (mole fraction)
// return a plain number; no unit text

# input What measured solubility (mole fraction) goes with O=C(O)COc1ccc(Cl)cc1Cl ?
# output 0.0644

* * *

# RECORDED_CONDITIONS: in isobutyl acetate, 323.15 K
MEASURED_METRIC: solubility (mole fraction)
// return a plain number; no unit text

# input What measured solubility (mole fraction) goes with O=C(O)COc1ccc(Cl)cc1Cl ?
# output 0.128

* * *

# RECORDED_CONDITIONS: in sec-butanol, 308.15 K
MEASURED_METRIC: solubility (mole fraction)
// return a plain number; no unit text

# input What measured solubility (mole fraction) goes with O=C(O)COc1ccc(Cl)cc1Cl ?
# output 0.139

* * *

# RECORDED_CONDITIONS: in isopropanol, 313.15 K
MEASURED_METRIC: solubility (mole fraction)
// return a plain number; no unit text

# input What measured solubility (mole fraction) goes with O=C(O)COc1ccc(Cl)cc1Cl ?
# output 0.153

* * *

# RECORDED_CONDITIONS: in n-butyl acetate, 323.15 K
MEASURED_METRIC: solubility (mole fraction)

# input What measured solubility (mole fraction) goes with O=C(O)COc1ccc(Cl)cc1Cl ?
# output 0.136

* * *

# RECORDED_CONDITIONS: in MTBE, 303.15 K
MEASURED_METRIC: solubility (mole fraction)
// return a plain number; no unit text

# input What measured solubility (mole fraction) goes with O=C(O)COc1ccc(Cl)cc1Cl ?
# output 0.137
